# Protocol Notes: self-splicing fitness, log relative to wild type (ln ratio); higher = more splicing; Tetrahymena group I intron in knt gene, E. coli kanamycin selection, DiMSum; sequences stand for … in CUCUCU…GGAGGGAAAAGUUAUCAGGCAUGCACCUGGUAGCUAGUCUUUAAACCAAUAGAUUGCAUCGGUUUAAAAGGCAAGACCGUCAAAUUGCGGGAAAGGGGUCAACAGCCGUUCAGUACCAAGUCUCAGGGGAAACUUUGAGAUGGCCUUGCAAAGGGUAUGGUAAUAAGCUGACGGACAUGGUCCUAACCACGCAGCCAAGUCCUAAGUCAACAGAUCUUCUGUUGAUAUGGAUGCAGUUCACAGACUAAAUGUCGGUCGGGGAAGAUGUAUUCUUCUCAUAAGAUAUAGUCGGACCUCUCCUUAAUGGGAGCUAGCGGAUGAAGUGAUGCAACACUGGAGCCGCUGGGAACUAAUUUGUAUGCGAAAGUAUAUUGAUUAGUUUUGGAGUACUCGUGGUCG;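 further: selection with 25 µg/mL kanamycin versus none on LB agar overnight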
# Assay Context: 37 °C
Provide the recorded self-splicing fitness (ln) for the entries that follow.
Answers are plain numbers.

Example entries begin here.
UCAAAGCAAUAUUACGUACU
-2.28
ACUUAGCAAUAUUACGCCUA
0.394
UGAAAGCAAUAUUACGACAU
-0.435
CGUAAGCAAUAUUACGCACA
-0.0497
UGUCAGCAAUAUUACGUACC
-0.159
UCCAAGCAAUAUUACGGUAC
-2.81
GGGUAGCAAUAUUACGUCAA
-0.61
GACCAGCAAUAUUACGGGCA
0.16
UUCCAGCAAUAUUACGUCCG
0.24
AUGCAGCAAUAUUACGAUUA
-0.923

Lab note: each sequence below needs its self-splicing fitness (ln) filled in.
1. CCGUAGCAAUAUUACGAUUG
2. AUACAGCAAUAUUACGUCUA
3. AGAGAGCAAUAUUACGCGCA
4. UACUAGCAAUAUUACGGGUC
5. AGUAAGCAAUAUUACGGCUA
6. GCUGAGCAAUAUUACGUAUA

1: -0.0224; 2: -0.238; 3: -1.74; 4: -2.29; 5: 0.0684; 6: -2.22

* * *

# Protocol Notes: self-splicing fitness, log relative to wild type (ln ratio); higher = more splicing; Tetrahymena group I intron in knt gene, E. coli kanamycin selection, DiMSum; sequences stand for … in CUCUCU…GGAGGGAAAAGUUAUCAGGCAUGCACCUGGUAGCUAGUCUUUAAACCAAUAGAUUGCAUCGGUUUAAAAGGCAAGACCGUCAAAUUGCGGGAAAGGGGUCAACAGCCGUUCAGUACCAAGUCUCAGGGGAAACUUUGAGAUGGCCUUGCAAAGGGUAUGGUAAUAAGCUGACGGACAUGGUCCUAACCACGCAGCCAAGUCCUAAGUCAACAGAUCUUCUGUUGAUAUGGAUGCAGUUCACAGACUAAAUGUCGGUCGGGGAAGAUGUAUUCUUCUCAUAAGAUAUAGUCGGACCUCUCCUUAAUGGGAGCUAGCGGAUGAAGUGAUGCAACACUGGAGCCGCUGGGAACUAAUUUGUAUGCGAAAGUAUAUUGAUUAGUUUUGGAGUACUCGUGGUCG
# Assay Context: 37 °C
Please enter yes (1) where self-splicing fitness (ln) is greater than or equal to -1, and no (0) where it is lower.

CAUUAGCAAUAUUACGGGGC
no (0)
UCCUAGCAAUAUUACGAGAC
no (0)
AGCCAGCAAUAUUACGUUAC
no (0)
AGCAAGCAAUAUUACGGCGC
yes (1)
UUCUAGCAAUAUUACGCACC
no (0)
AAAGAGCAAUAUUACGGAAA
no (0)
GAACAGCAAUAUUACGACCC
yes (1)
UCAAAGCAAUAUUACGUACG
yes (1)

Identify whether the reported self-splicing fitness (ln) of the following sequence is -1 or greater: GGACAGCAAUAUUACGUGCC
no (0)

Identify whether the reported self-splicing fitness (ln) of the following sequence is -1 or greater: UUUCAGCAAUAUUACGAAUA
yes (1)

Identify whether the reported self-splicing fitness (ln) of the following sequence is -1 or greater: CAGAAGCAAUAUUACGGCAA
no (0)

Identify whether the reported self-splicing fitness (ln) of the following sequence is -1 or greater: UUAAAGCAAUAUUACGAACC
yes (1)

Identify whether the reported self-splicing fitness (ln) of the following sequence is -1 or greater: UUAAAGCAAUAUUACGUCUA
yes (1)

Identify whether the reported self-splicing fitness (ln) of the following sequence is -1 or greater: GUGGAGCAAUAUUACGUAUU
no (0)

Identify whether the reported self-splicing fitness (ln) of the following sequence is -1 or greater: GGUCAGCAAUAUUACGUCGC
yes (1)

Identify whether the reported self-splicing fitness (ln) of the following sequence is -1 or greater: AACUAGCAAUAUUACGCUCA
yes (1)

Identify whether the reported self-splicing fitness (ln) of the following sequence is -1 or greater: UGAGAGCAAUAUUACGCUUA
no (0)

Identify whether the reported self-splicing fitness (ln) of the following sequence is -1 or greater: UUUGAGCAAUAUUACGAGCA
no (0)

Identify whether the reported self-splicing fitness (ln) of the following sequence is -1 or greater: CGUCAGCAAUAUUACGCGAG
yes (1)

* * *

# Protocol Notes: self-splicing fitness, log relative to wild type (ln ratio); higher = more splicing; Tetrahymena group I intron in knt gene, E. coli kanamycin selection, DiMSum; sequences stand for … in CUCUCU…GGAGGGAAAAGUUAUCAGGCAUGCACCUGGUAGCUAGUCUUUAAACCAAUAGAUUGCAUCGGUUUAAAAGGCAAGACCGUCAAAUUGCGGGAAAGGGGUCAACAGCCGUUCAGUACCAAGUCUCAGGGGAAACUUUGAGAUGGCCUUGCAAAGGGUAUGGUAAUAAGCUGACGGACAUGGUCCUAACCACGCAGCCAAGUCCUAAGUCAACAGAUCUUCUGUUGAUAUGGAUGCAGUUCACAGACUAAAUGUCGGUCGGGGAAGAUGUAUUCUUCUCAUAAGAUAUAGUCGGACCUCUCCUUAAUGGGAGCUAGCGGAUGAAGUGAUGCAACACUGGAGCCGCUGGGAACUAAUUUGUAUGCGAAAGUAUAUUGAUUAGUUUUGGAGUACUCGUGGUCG
# Assay Context: 30 °C
Please enter T where self-splicing fitness (ln) is greater than or equal to -2, and F where it is lower.

UAUCAGCAAUAUUACGAUUC
T
AACCAGCAAUAUUACGCAUG
T
CGUCAGCAAUAUUACGCCGU
F
AUUUAGCAAUAUUACGGUGA
T

Identify whether the reported self-splicing fitness (ln) of the following sequence is -2 or greater: AUUUAGCAAUAUUACGCUCC
T

Identify whether the reported self-splicing fitness (ln) of the following sequence is -2 or greater: AUAAAGCAAUAUUACGGAGA
F

Identify whether the reported self-splicing fitness (ln) of the following sequence is -2 or greater: UCGUAGCAAUAUUACGUGAA
F

Identify whether the reported self-splicing fitness (ln) of the following sequence is -2 or greater: GAACAGCAAUAUUACGUACG
T

Identify whether the reported self-splicing fitness (ln) of the following sequence is -2 or greater: UGACAGCAAUAUUACGGUCC
T

Identify whether the reported self-splicing fitness (ln) of the following sequence is -2 or greater: UCAAAGCAAUAUUACGUGCG
T

Identify whether the reported self-splicing fitness (ln) of the following sequence is -2 or greater: AGUAAGCAAUAUUACGGGGA
F

Identify whether the reported self-splicing fitness (ln) of the following sequence is -2 or greater: CCCCAGCAAUAUUACGAAGA
F

Identify whether the reported self-splicing fitness (ln) of the following sequence is -2 or greater: CACGAGCAAUAUUACGGGGG
F

Identify whether the reported self-splicing fitness (ln) of the following sequence is -2 or greater: CAGCAGCAAUAUUACGUCAG
T

* * *

# Protocol Notes: self-splicing fitness, log relative to wild type (ln ratio); higher = more splicing; Tetrahymena group I intron in knt gene, E. coli kanamycin selection, DiMSum; sequences stand for … in CUCUCU…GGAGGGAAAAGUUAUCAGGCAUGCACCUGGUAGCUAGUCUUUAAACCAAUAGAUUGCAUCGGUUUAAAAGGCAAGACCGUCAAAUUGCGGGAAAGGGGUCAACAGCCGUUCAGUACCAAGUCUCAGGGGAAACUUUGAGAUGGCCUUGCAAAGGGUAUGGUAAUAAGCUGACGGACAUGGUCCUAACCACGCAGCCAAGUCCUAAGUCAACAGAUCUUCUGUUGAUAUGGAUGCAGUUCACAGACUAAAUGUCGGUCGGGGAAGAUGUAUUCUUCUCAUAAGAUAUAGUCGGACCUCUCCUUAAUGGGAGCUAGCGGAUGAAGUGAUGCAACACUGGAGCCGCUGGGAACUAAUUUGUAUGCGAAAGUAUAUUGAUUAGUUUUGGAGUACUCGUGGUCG
# Assay Context: 37 °C
Please enter class 1 where self-splicing fitness (ln) is greater than or equal to -1, and class 0 where it is lower.

The following sequences have reported results that may help.
UGGAAGCAAUAUUACGGUUU
class 0
GCUUAGCAAUAUUACGGCGU
class 1
AAUGAGCAAUAUUACGUUCC
class 0
CUAGAGCAAUAUUACGCUUC
class 0
CUAAAGCAAUAUUACGGCAU
class 0
UCCAAGCAAUAUUACGAGGA
class 0
UCAUAGCAAUAUUACGCGCG
class 1
CGCUAGCAAUAUUACGAAAU
class 0
GGUCAGCAAUAUUACGCAUG
class 1
AUACAGCAAUAUUACGGCAC
class 1

Identify whether the reported self-splicing fitness (ln) of the following sequence is -1 or greater: CCGCAGCAAUAUUACGGCUC
class 0

Identify whether the reported self-splicing fitness (ln) of the following sequence is -1 or greater: CGCAAGCAAUAUUACGCGAG
class 0

Identify whether the reported self-splicing fitness (ln) of the following sequence is -1 or greater: CCAUAGCAAUAUUACGAUGC
class 0

Identify whether the reported self-splicing fitness (ln) of the following sequence is -1 or greater: UAAAAGCAAUAUUACGCAAC
class 0

Identify whether the reported self-splicing fitness (ln) of the following sequence is -1 or greater: GGUUAGCAAUAUUACGAUUU
class 1

Identify whether the reported self-splicing fitness (ln) of the following sequence is -1 or greater: UAUCAGCAAUAUUACGGCGA
class 1

Source listed as the supplement of paper PMC7877785.
